target.desc: NB-Aus21 (IBV neuraminidase) (Influenza B virus, UniProt A0A1X9RX69)
procedure.summary: biochemical
Parameters: species or system influenza B virus B/Austria/1359417/2021
condition.info: inhibitor 8.0 μM; Example 3, Table 4; read-out: percentage inhibition against NB-NB-Aus21
The reader will find reported inhibition at 8 µM values listed item by item below.
Field format: number, assumed %, no unit text.

# inhibition at 8 µM measured on NB-Aus21 (IBV neuraminidase) (Influenza B virus, UniProt A0A1X9RX69) for item CC(=O)N[C@H]1[C@H]([C@H](O)[C@H](O)CO)O[C@@](O[C@H]2[C@@H](O)[C@@H](CO)O[C@@H](Oc3ccc([N+](=O)[O-])cc3)[C@@H]2O)(C(=O)O)C[C@@H]1OC(C)=O [Neu4,5Ac2α2-3GalβpNP, Neu4,5Acα2-3GalβpNP, reference compound] = 0.8

Others:
# value of inhibition at 8 µM, NB-Aus21 (IBV neuraminidase) (Influenza B virus, UniProt A0A1X9RX69), item "CC(=O)N[C@H]1[C@H]([C@H](O)[C@H](O)CO)O[C@@](OC[C@H]2O[C@@H](Oc3ccc([N+](=O)[O-])cc3)[C@H](O)[C@@H](O)[C@H]2O)(C(=O)O)C[C@@H]1NC(=N)N" = 66.6

For the compound CC(=O)N[C@@H]1C(N=[N+]=[N-])C[C@](OC2C(O)[C@H](Oc3ccc([N+](=O)[O-])cc3)OC(CO)[C@@H]2O)(C(=O)O)OC1[C@H](O)[C@H](O)CO (stereo partly shown) , the measured inhibition at 8 µM on NB-Aus21 (IBV neuraminidase) (Influenza B virus, UniProt A0A1X9RX69) was 3.8

NB-Aus21 (IBV neuraminidase) (Influenza B virus, UniProt A0A1X9RX69) inhibition at 8 µM of CC(=O)N[C@@H]1C(N=[N+]=[N-])C[C@](OCC2O[C@@H](Oc3ccc([N+](=O)[O-])cc3)C(O)C(O)[C@H]2O)(C(=O)O)OC1[C@H](O)[C@H](O)CO (stereo partly shown) is 1.4
